READOUT_LABEL: melting point

Consider the following illustrative entries.
{"columns": ["MOLECULE", "melting point"],
 "data": [
  ["NS(=O)(=O)c1ccc(N2CN(C3CCCCC3)CC2=O)c(Cl)c1", "188 to 190 °C"],
  ["CN(c1nc(-c2cc3ccccc3[nH]c2=O)cs1)S(=O)(=O)c1cn(C)cn1", "> 300 °C"]
]}

Go through the items and report each one's melting point.
1. Cc1c(Oc2ccccc2)cccc1Oc1ccccc1
2. COc1cc2c(c(-c3cc(Cl)ccc3Cl)c1)OC(CN)C2 (stereo not given)
3. N#Cc1cc(C(=O)NNC(=O)c2occc2-c2ccccc2Oc2ccccc2)ccc1O
4. COc1cc(OC)c(-c2cccs2)cc1C#CC(=O)c1cc(OC)c(OCC(=O)O)c(OC)c1

Result:
1. 39 to 41 °C
2. 140 to 142 °C
3. 134 to 135 °C
4. 192 to 194 °C

Go through the items and report each one's melting point.
1. Cc1cc(O)c(C)c(C)c1N
2. COC(=O)C1(n2c(=O)c3ccccc3n(CCCCBr)c2=O)CCCC1
3. CC(=O)SC1(C(=O)O)CCCC1
4. CCCCc1nc2ccc(C)c(C(=O)OCC)c2n1Cc1ccc(-c2ccccc2-c2nnn[nH]2)cc1

Result:
1. 153 to 154 °C
2. 96 to 98 °C
3. 120 to 122 °C
4. 164 to 165 °C
